- TESTED_SYSTEM: Nuclear receptor coactivator 3 (Homo sapiens) (UniProt Q9Y6Q9)
- Sequence (Q9Y6Q9 whole entry, looked up): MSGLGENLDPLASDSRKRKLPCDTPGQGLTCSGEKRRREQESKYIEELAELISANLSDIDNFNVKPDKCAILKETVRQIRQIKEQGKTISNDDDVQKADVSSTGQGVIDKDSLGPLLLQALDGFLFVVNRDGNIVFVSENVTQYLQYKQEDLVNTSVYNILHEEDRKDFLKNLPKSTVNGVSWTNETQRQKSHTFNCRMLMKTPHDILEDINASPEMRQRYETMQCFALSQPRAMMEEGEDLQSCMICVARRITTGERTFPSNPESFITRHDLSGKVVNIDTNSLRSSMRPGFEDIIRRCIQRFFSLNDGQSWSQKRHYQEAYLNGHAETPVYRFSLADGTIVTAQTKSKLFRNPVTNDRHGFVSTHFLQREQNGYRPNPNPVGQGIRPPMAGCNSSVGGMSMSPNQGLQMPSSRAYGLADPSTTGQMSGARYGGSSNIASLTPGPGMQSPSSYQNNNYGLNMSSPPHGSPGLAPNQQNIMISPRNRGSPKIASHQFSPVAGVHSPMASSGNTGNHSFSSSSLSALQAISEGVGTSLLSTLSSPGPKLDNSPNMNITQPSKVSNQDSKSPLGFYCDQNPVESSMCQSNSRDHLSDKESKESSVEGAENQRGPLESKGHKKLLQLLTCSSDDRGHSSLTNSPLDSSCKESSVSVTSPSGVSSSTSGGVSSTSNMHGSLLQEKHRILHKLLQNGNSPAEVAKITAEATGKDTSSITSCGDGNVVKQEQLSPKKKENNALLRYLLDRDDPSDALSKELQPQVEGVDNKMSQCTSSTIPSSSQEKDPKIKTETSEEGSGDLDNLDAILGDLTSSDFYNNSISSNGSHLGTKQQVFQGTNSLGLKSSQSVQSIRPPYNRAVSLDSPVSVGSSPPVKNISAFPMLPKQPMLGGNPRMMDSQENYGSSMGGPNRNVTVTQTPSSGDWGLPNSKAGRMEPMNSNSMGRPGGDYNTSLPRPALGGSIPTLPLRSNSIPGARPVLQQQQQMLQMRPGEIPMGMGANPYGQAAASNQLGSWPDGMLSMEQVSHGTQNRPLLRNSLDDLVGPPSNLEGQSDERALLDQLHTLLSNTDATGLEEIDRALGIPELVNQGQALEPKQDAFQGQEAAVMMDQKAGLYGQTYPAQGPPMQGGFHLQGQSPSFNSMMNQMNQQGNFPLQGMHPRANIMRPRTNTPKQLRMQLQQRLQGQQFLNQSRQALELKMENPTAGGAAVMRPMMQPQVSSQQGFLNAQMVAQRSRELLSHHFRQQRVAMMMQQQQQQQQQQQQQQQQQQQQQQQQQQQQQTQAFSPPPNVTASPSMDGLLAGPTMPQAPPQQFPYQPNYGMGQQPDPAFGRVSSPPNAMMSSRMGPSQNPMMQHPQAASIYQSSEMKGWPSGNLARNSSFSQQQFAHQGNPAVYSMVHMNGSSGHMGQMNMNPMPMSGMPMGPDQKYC
- MEASUREMENT_DESCRIPTION: SRC3 coactivator transcriptional activity inhibitors, confirmation, cell-based, luminescence, quadruplicate (AID 588792);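 also: 0% = DMSO treated cells and 100% = gossypol at 36 µM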
- ASSAY_CONTEXT: HEK293 GAL4-SRC3 luciferase reporter, at 3.6 µM, stronger effect = higher value
ENDPOINT_NAME: inhibition (%)
Only the number, expressed in %, is required.

Use these answered entries as a reference point.
# MOLECULE, inhibition, %
data = [
    ("O=S(=O)(NC1=NCCC1)c1cccc(NS(=O)(=O)c2ccc(OC(F)(F)F)cc2)c1", -6.28),
    ("COc1ccc(C2=Nn3c([n+](C)c4ccccc43)SC2)cc1", 45.3),
    ("COc1ccc(OC)c(C2C3=C(CCCC3=O)NC3=C2C(=O)CCC3)c1", 4.98),
    ("CCCCCCCOC(=O)C[N+](C)(C)CCOC1CC2CCC1(C)C2(C)C (stereo unspecified)", -17.6),
]

[Q] Kindly indicate its recorded inhibition. Item: `CC1(C)Cc2c(ccc3ccccc23)C(=O)N1`
[A] 55.7

[Q] Kindly indicate its recorded inhibition. Item: `Cn1c(/C=C/c2ccc(Br)cc2)c([N+](=O)[O-])c(=O)n(C)c1=O`
[A] 45.2
